src = patent US8686150B2

Parameter inhibition at 1.14 µM: see the listing below.
- TESTED ON: human full-length recombinant PKC βII (Homo sapiens, UniProt P05771)
- Construct: Active human full-length recombinant PKC βII; purchased Invitrogen GmbH, Darmstadt, Germany
- Sequence (P05771 1-673 isoform P05771-2): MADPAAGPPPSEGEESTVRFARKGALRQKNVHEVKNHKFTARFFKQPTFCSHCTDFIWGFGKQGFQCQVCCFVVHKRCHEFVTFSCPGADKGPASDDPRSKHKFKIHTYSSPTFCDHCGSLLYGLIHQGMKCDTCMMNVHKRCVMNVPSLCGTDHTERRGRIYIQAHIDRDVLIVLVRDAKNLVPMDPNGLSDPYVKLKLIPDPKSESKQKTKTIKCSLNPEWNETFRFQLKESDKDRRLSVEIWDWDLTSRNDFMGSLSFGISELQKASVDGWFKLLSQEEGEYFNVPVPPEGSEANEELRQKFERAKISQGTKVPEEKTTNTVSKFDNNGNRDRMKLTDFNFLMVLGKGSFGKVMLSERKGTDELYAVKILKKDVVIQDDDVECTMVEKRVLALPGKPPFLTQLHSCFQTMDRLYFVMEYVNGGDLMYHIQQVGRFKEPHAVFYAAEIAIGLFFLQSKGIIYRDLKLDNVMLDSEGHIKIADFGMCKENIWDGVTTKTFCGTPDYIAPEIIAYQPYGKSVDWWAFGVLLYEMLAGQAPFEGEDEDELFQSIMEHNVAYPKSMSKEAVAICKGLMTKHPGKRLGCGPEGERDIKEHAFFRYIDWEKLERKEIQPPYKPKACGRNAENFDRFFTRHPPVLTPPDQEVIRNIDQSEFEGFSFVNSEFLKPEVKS
- RUN DESCRIPTION: Determination of PKC βII inhibition (Caliper mobility-shift kinase assay, Fluorescein-RFARKGSLRQKNV peptide substrate)
- Format: biochemical
- CONDITION LABEL: example compounds at a final concentration of 1.14 μM (±0.15 μM)
VALUE TYPE: inhibition at 1.14 µM (%)

COMPOUND | MEASUREMENT
CCCC[C@H]1CN(C(=O)c2cc(-c3ccc(O)cc3)nc3[nH]nc(C)c23)CCN1 [Example 209] | 97
Cc1n[nH]c2nc(-c3ccc(O)cc3)cc(C(=O)N3CCNC[C@H]3C)c12 [Example 23] | 95
COc1ccc(C2CNCCN2C(=O)c2cc(-c3ccc(O)cc3)nc3[nH]nc(C)c23)cc1 (stereo not shown) [Example 69] | 100
CCc1n[nH]c2nc(-c3ccc(O)cc3)cc(C(=O)NC3CC4CCCC(C3)N4C)c12 (stereo not shown) [Example 184] | 22

* * *

- TESTED ON: human full-length recombinant PKC βII (Homo sapiens)
- Construct: Active human full-length recombinant PKC βII; purchased Invitrogen GmbH, Darmstadt, Germany
- RUN DESCRIPTION: Determination of PKC βII inhibition (Caliper mobility-shift kinase assay, Fluorescein-RFARKGSLRQKNV peptide substrate)
- Assay type: biochemical
- CONDITION LABEL: example compounds at a final concentration of 1.14 μM (±0.15 μM)
Parameter inhibition at 1.14 µM: see the listing below.

MOLECULE | TESTED ON | UNIT NAME | inhibition at 1.14 µM
Cc1n[nH]c2nc(-c3ccc(O)cc3)cc(C(=O)NCCNC(C)C)c12 [Example 50] | human full-length recombinant PKC βII (Homo sapiens) | % | 81
Cc1n[nH]c2nc(-c3ccc(O)c(F)c3)cc(C(=O)N3C[C@]4(C)CN(C)C[C@](C)(C3)C4O)c12 (some centres unmarked) [Example 334] | human full-length recombinant PKC βII (Homo sapiens) | % | 53
CCc1n[nH]c2nc(-c3ccc(O)cc3)cc(C(=O)N3CCC4(CCCNC4)C3)c12 (centres unmarked) [Example 173] | human full-length recombinant PKC βII (Homo sapiens) | % | 58
CCC1CN(C(=O)c2cc(-c3ccc(O)cc3F)nc3[nH]nc(C)c23)C(CC)CN1 (centres unmarked) [Example 445] | human full-length recombinant PKC βII (Homo sapiens) | % | 99
Cc1n[nH]c2nc(-c3ccc(O)cc3)cc(C(=O)N3CCN4CCC[C@H]4C3)c12 [Example 383] | human full-length recombinant PKC βII (Homo sapiens) | % | 66
Cc1n[nH]c2nc(-c3ccc(O)cc3)cc(C(=O)N3CCCC4CNCCC43)c12 (centres unmarked) [Example 230] | human full-length recombinant PKC βII (Homo sapiens) | % | 93
CCCC1(NC(=O)c2cc(-c3ccc(O)cc3)nc3[nH]nc(C)c23)CCNC1 (centres unmarked) [Example 125] | human full-length recombinant PKC βII (Homo sapiens) | % | 52
Cc1n[nH]c2nc(-c3ccc(O)c(F)c3)cc(C(=O)N3CCNC[C@H]3C(=O)NC(C)(C)C)c12 [Example 325] | human full-length recombinant PKC βII (Homo sapiens) | % | 76

* * *

Parameter inhibition at 1.14 µM: see the listing below.
- TESTED ON: human full-length recombinant PKC βII (Homo sapiens)
- Construct: Active human full-length recombinant PKC βII; purchased Invitrogen GmbH, Darmstadt, Germany
- RUN DESCRIPTION: Determination of PKC βII inhibition (Caliper mobility-shift kinase assay, Fluorescein-RFARKGSLRQKNV peptide substrate)
- Assay type: biochemical
- CONDITION LABEL: example compounds at a final concentration of 1.14 μM (±0.15 μM)
VALUE TYPE: inhibition at 1.14 µM (%)

COMPOUND | MEASUREMENT
Cc1n[nH]c2nc(-c3ccc(O)cc3)cc(C(=O)N3CCNCC3c3ccc(F)cc3)c12 (stereo not shown) | 101
Cc1n[nH]c2nc(-c3ccc(O)cc3)cc(C(=O)N3CCNC(c4ccccc4)C3)c12 (stereo not shown) | 89
Cc1n[nH]c2nc(-c3ccc(O)cc3F)cc(C(=O)NCC3(N)CCCCCC3)c12 | 92
CO[C@H]1CNC[C@@H]1NC(=O)c1cc(-c2ccc(O)cc2)nc2[nH]nc(C)c12 [Example 213] | 94

* * *

Parameter inhibition at 1.14 µM: see the listing below.
- TESTED ON: human full-length recombinant PKC βII (Homo sapiens)
- Construct: Active human full-length recombinant PKC βII; purchased Invitrogen GmbH, Darmstadt, Germany
- RUN DESCRIPTION: Determination of PKC βII inhibition (Caliper mobility-shift kinase assay, Fluorescein-RFARKGSLRQKNV peptide substrate)
- Type: biochemical
- CONDITION LABEL: example compounds at a final concentration of 1.14 μM (±0.15 μM)

COMPOUND | inhibition at 1.14 µM (%)
Cc1n[nH]c2nc(-c3ccc(O)cc3)cc(C(=O)N3CC(=O)N4CCCCC4C3)c12 (centres unmarked) [Example 266] | 39
CCc1n[nH]c2nc(-c3ccc(O)cc3)cc(C(=O)NC3CCCC(N)C3)c12 (centres unmarked) [Example 170] | 59
Cc1n[nH]c2nc(-c3ccc(O)cc3)cc(C(=O)NC3(C)CCNCC3)c12 [Example 41] | 95
Cc1n[nH]c2nc(-c3ccc(O)cc3)cc(C(=O)NC3CNCC3c3ccccc3)c12 (centres unmarked) [Example 45] | 84
CCc1n[nH]c2nc(-c3ccc(O)cc3)cc(C(=O)N3CCC(N)CC3)c12 [Example 166] | 87
Cc1n[nH]c2nc(-c3ccc(O)cc3)cc(C(=O)NCC(C)(C)CN)c12 [Example 270] | 87
Cc1cc(O)ccc1-c1cc(C(=O)N2CCNCC2c2ccccc2F)c2c(C)n[nH]c2n1 (centres unmarked) [Example 151] | 96
CC(=O)N1CCN(C(=O)c2cc(-c3ccc(O)cc3)nc3[nH]nc(C)c23)CC1 [Example 265] | 87
Cc1ccc(C(CN)NC(=O)c2cc(-c3ccc(O)cc3)nc3[nH]nc(C)c23)cc1 (centres unmarked) [Example 52] | 86
CCN1CCCN(C(=O)c2cc(-c3ccc(O)cc3)nc3[nH]nc(C)c23)CC1 [Example 281] | 85
CCc1n[nH]c2nc(-c3ccc(O)cc3)cc(C(=O)N3CCC4(CC3)CNC4)c12 [Example 171] | 77
Cc1n[nH]c2nc(-c3ccc(O)cc3F)cc(C(=O)N3C[C@@H](C)NC[C@@H]3C)c12 [Example 429] | 98
Cc1n[nH]c2nc(-c3ccc(O)c(F)c3)cc(C(=O)NC3CN4CCC3CC4)c12 (centres unmarked) [Example 333] | 67
Cc1n[nH]c2nc(-c3ccc(O)c(F)c3)cc(C(=O)NC3CCN(C)CC3)c12 [Example 319] | 59
O=C(NC1CNC1)c1cc(-c2ccc(O)cc2)nc2[nH]nc(C(F)(F)F)c12 [Example 402] | 41
Cc1n[nH]c2nc(-c3ccc(O)cc3)cc(C(=O)NC(CCN)c3ccccc3)c12 (centres unmarked) [Example 131] | 68
Cc1n[nH]c2nc(-c3ccc(O)cc3)cc(C(=O)N3CCC[C@@H](CN)C3)c12 [Example 110] | 65

* * *

Parameter inhibition at 1.14 µM: see the listing below.
- TESTED ON: human full-length recombinant PKC βII (Homo sapiens, UniProt P05771)
- Construct: Active human full-length recombinant PKC βII; purchased Invitrogen GmbH, Darmstadt, Germany
- RUN DESCRIPTION: Determination of PKC βII inhibition (Caliper mobility-shift kinase assay, Fluorescein-RFARKGSLRQKNV peptide substrate)
- Assay type: biochemical
- CONDITION LABEL: example compounds at a final concentration of 1.14 μM (±0.15 μM)

COMPOUND | TESTED ON | inhibition at 1.14 µM (%)
Cc1n[nH]c2nc(-c3ccc(O)c(F)c3)cc(C(=O)N3CCNC(C)C3C)c12 (stereo not shown) | human full-length recombinant PKC βII (Homo sapiens, UniProt P05771) | 84
CCc1n[nH]c2nc(-c3ccc(O)cc3)cc(C(=O)N3CC[C@@H](N(C)C)C3)c12 | human full-length recombinant PKC βII (Homo sapiens, UniProt P05771) | 40
Cc1n[nH]c2nc(-c3ccc(O)cc3)cc(C(=O)N3C[C@H](C)NC[C@H]3C)c12 (relative stereo) | human full-length recombinant PKC βII (Homo sapiens, UniProt P05771) | 95
CCc1n[nH]c2nc(-c3ccc(O)cc3)cc(C(=O)NC3CCNC4(CCC4)C3)c12 (stereo not shown) | human full-length recombinant PKC βII (Homo sapiens, UniProt P05771) | 44
